Tested on: Mycobacterium szulgai
Test: Antimycobacterial activity against Mycobacterium szulgai MNT1100 clinical isolate by MTT assay
Format: functional
measured_quantity: MIC

// for each compound in input: emit MIC
1. Cc1nn(-c2ccccc2)c2nc3c(c(-c4ccc(Cl)cc4)c12)C(=O)C(=O)c1ccccc1-3
2. O=C1C(=O)c2ccccc2C2=C1C(c1ccccc1)c1c(-c3ccc([N+](=O)[O-])cc3)n[nH]c1N2 (stereo not given)
3. Cc1ccc(-c2n[nH]c3nc4c(c(-c5ccc([N+](=O)[O-])cc5)c23)C(=O)C(=O)c2ccccc2-4)cc1
4. COc1cc(-c2c3c(nc4c2c(C)nn4-c2ccccc2)-c2ccccc2C(=O)C3=O)cc(OC)c1OC
5. Cc1nn(-c2ccccc2)c2nc3c(c(-c4ccccc4)c12)C(=O)C(=O)c1ccccc1-3
6. Cc1nn(-c2ccccc2)c2nc3c(c(-c4ccc(F)cc4)c12)C(=O)C(=O)c1ccccc1-3
7. NNC(=O)c1ccncc1
8. Cc1ccc(-c2c3c(nc4c2c(C)nn4-c2ccccc2)-c2ccccc2C(=O)C3=O)cc1

Result:
1: > 32 µg/mL; 2: > 32 µg/mL; 3: > 32 µg/mL; 4: > 32 µg/mL; 5: > 32 µg/mL; 6: > 32 µg/mL; 7: > 0.5 µg/mL; 8: > 32 µg/mL

I'm hoping you can list MIC for every compound here, please.
1. Cc1ccc(-c2n[nH]c3c2C(c2ccccc2)C2=C(N3)c3ccccc3C(=O)C2=O)cc1 (stereo not given)
2. Cc1ccc(C2C3=C(Nc4[nH]nc(-c5ccccc5)c42)c2ccccc2C(=O)C3=O)cc1 (stereo not given)
3. CO[C@H]1/C=C/O[C@@]2(C)Oc3c(C)c(O)c4c(O)c(c(/C=N/N5CCN(C)CC5)c(O)c4c3C2=O)NC(=O)/C(C)=C\C=C\[C@H](C)[C@H](O)[C@@H](C)[C@@H](O)[C@@H](C)[C@H](OC(C)=O)[C@@H]1C
4. COc1ccc(C2C3=C(Nc4[nH]nc(-c5ccccc5)c42)c2ccccc2C(=O)C3=O)cc1 (stereo not given)
5. O=C1C(=O)c2ccccc2C2=C1C(c1ccccc1)c1c(-c3ccc(Cl)cc3)n[nH]c1N2 (stereo not given)
6. O=C1C(=O)c2ccccc2C2=C1C(c1ccccc1)c1c(-c3ccccc3)n[nH]c1N2 (stereo not given)

Result:
["> 32 µg/mL", "> 32 µg/mL", "> 0.5 µg/mL", "> 32 µg/mL", "> 32 µg/mL", "> 32 µg/mL"]

Q: Entry `COc1ccc(-c2c3c(nc4[nH]nc(-c5ccc(Cl)cc5)c24)-c2ccccc2C(=O)C3=O)cc1` : reported MIC = ?
Result: > 32 µg/mL

Data origin, for the record: ChEMBL document CHEMBL3112512
